# measured.target: CGRP receptor (Nluc-CLR:RAMP1) (Homo sapiens, UniProt O60894+Q16602)
# Construct: N-terminally Nanoluciferase (NLuc)-tagged CLR (pcDNA3.1(+)sec/NanoLuc-GSGIS-CLR.23-461); Wild-type CLR and RAMP expression plasmids were obtained from cDNA.org; sec (vector secretion signal before NanoLuc) (N); expressed in transfected cells; host or cells: COS-7 cells, membrane preparation
# assay.explanation: nanoBRET competition association kinetics (Motulsky-Mahan)
# Type: binding
# conditions: from competition kinetics, mean ± SEM, n=3; read-out: Kd calc (koff/kon)
Ends that are not written are not given here.
Parameter: pKd. Scope: all listed entries.
Scale for pKd: -log10 of concentration given in mol/L; no unit attached.

FVPTNVGSKAF-NH2 [CGRP(27-37), reference compound]    5.98

# evaluate next
What value of measured pKd is listed for FVPTDVGPWSF-NH2 [ssCGRP(27-37)] ?
9.14

* * *

# measured.target: CGRP receptor (Nluc-CLR:RAMP1) (Homo sapiens, UniProt O60894+Q16602)
# Construct: N-terminally Nanoluciferase (NLuc)-tagged CLR (pcDNA3.1(+)sec/NanoLuc-GSGIS-CLR.23-461); Wild-type CLR and RAMP expression plasmids were obtained from cDNA.org; sec (vector secretion signal before NanoLuc) (N); expressed in transfected cells; host or cells: COS-7 cells, membrane preparation
# assay.explanation: nanoBRET equilibrium competition binding, Nluc-CLR:RAMP1 membranes
# conditions: G protein uncoupled state (50 μM GTPγS), 30 nM AM2/IMD(8-47)-TAMRA probe, 8 h, room temperature, Cheng-Prusoff, mean ± SEM, n=3; read-out: Ki + GTPγS
Ends that are not written are not given here.
assay.readout: Ki (nM)
// note: answer is a bare numeric in nM

What value of measured Ki is listed for VTHRLAGLLSRSGGVVKNNFVPTDVGPWSF-NH2 [ssCGRP(8-37)] ?
0.43

Cited source: paper PMC12004451
